As shown below, each of these molecules has a reported GI50 value.
- Tested on: MCF7
- PROTOCOL SUMMARY: NCI tumour cell line growth inhibition, 48 h
The source made the active and inactive calls. Rule as the data show it: active = GI50 up to about 1.1 µM and inactive = higher. Peptide text beside a SMILES is read from it. * marks the point of attachment. Cbz = O=C(OCc1ccccc1)*

MOLECULE	GI50
CCCCCCCCCCCCCCCC(=O)Nc1ccn(C2CC(OP(=O)(O)OCC3OC(n4cc(F)c(=O)[nH]c4=O)CC3OC(C)=O)C(CO)O2)c(=O)n1 (stereo not given)	> 100 µM (inactive)
S=C1SC(=N\c2ccccc2)/C(=N/c2ccccc2)N1c1ccccc1	> 100 µM (inactive)
CCC12CN(C(=O)OC)C3C(Br)C1CCC(=O)C32 (stereo not given)	> 100 µM (inactive)
COc1c(-c2nc3ccc(N4CCN(C)CC4)nc3[nH]2)cc(OC)c2[nH]c(CO)nc12	11.2 µM (inactive)
NS(=O)(=O)c1nnc(/N=C(/CCC(=O)O)C(=O)O)s1	> 100 µM (inactive)
CC1=CC(=O)N(n2c(Cc3ccc(Cl)cc3)n[nH]c2=O)C1=O	30.5 µM (inactive)
CC1(C)CC[C@]2(C)CC[C@]3(C)C(=CC[C@@H]4[C@@]5(C)CCC(=O)C(C)(C)[C@@H]5[C@H](O)C[C@]43C)[C@@H]2C1	19 µM (inactive)
O=S(=O)(O)c1ccc2cccc(/N=N\c3c(O)ccc4ccccc34)c2c1	> 100 µM (inactive)
CC(C)C1(C)N=C(C(F)(F)F)c2cc(C(=O)C(F)(F)F)c3ccccc3c2N1 (stereo not given)	4.03 µM (inactive)
N#CC(C#N)=C1C(=O)NC(N)=C1C#N	> 100 µM (inactive)
COc1cc2c(cc1OC)C(=O)/C(=C/c1cc(C)cc(C)c1)C2	0.385 µM (active)
N#CC1C(=O)NC23CCCCC2C1c1ccccc1O3 (stereo not given)	> 100 µM (inactive)
COc1cc2nc(-c3ccccc3)cc(O)c2c(OC)c1OC	67.1 µM (inactive)
CN(C)c1ccc(/C=C/C(=O)c2ccc(O)cc2)cc1	4.11 µM (inactive)
O=C1C=CC(=NNc2ccccc2)C=CC1=O	19.3 µM (inactive)
CN1CC(S(=O)(=O)c2ccccc2)CC(S(=O)(=O)c2ccccc2)C1c1ccccc1 (stereo not given)	12.4 µM (inactive)
CC(=O)OCC1OC(O[C@@H]2C[C@H]3C(C)(C)[C@H](OC(C)=O)CC[C@]3(C)[C@H]3CC[C@@]45C[C@H](O)C[C@H](C)[C@@H]4CC=C5[C@@]32C)C(O)C(O)C1O (stereo not given in full)	4.04 µM (inactive)
c1ccc2cc(CNCCCCNCCCNCc3ccc4ccccc4c3)ccc2c1	0.548 µM (active)
CC(C)=CCNc1ncnc2c1ncn2CCC(=O)OC(C)(C)C	> 100 µM (inactive)
Nc1ncc2c(n1)-c1ccccc1OC2N1CCOCC1 (stereo not given)	> 100 µM (inactive)
c1ccc([C@@H]2N[C@@]3(CO[Si](c4ccccc4)(c4ccccc4)c4ccccc4)CC[C@H]4CN[C@@H]2[C@H]43)cc1	2.99 µM (inactive)
Cc1c2cccc-2ccc2c3ccccc3n(C(=O)c3ccc(Cl)cc3)c12	0.479 µM (active)
O=C(CNc1ccccc1[N+](=O)[O-])Nn1c(-c2ccccc2)nc2ccccc2c1=O	19.1 µM (inactive)
O=C(O)CCC(NC(=O)OCc1ccccc1)C(=O)NC(Cc1c[nH]cn1)C(=O)O (stereo not drawn) (Cbz-Glu-His-OH; configuration not given here)	> 100 µM (inactive)
CCN1CCC(C)OP1(=O)Cc1ccccc1 (stereo not given)	> 100 µM (inactive)
Cc1cn(Cc2cccc(C3=NCCCN3)c2)c(=O)n(Cc2cccc(C3=NCCCN3)c2)c1=O	> 100 µM (inactive)
Nc1cc2[nH]c(=O)c3cc(Cl)ccc3c2cc1Cl	0.149 µM (active)
Cc1nc(Nc2ccccc2Cl)sc1C(=O)CC(=O)C(=O)Nc1c(Cl)cccc1Cl	28.2 µM (inactive)
COc1cc2nc(-c3cccs3)nc(Cl)c2cc1OC	23.4 µM (inactive)
COc1ccc(C(C)NNC(=O)c2ccncc2)c(OC)c1 (stereo not given)	> 100 µM (inactive)
CC(C)(C)C(=O)C(CC(=O)c1ccccc1)C(=O)C(C)(C)C	> 100 µM (inactive)
C1=CC2C=CC(C=C1)P2c1ccccc1 (stereo not given)	> 100 µM (inactive)
C=C1c2nc3ccccc3n2C=C(c2ccccc2)N1c1ccc(Cl)cc1	11.2 µM (inactive)
CN(C)c1ccc(/C=C2\N=C(c3ccccc3)N(c3ccc4c(c3)Sc3cc(N5C(=O)/C(=C/c6ccc(N(C)C)cc6)N=C5c5ccccc5)ccc3N4)C2=O)cc1	17 µM (inactive)
CCCCCCCC(=O)N/N=C/c1ccc(Sc2nccn2C)c([N+](=O)[O-])c1	16.6 µM (inactive)
COC1CCN(N(C)C)O1 (stereo not given)	> 100 µM (inactive)
Oc1ccccc1/C=N/Nc1nc(N/N=C/c2ccccc2O)nc(N/N=C/c2ccccc2O)n1	8.63 µM (inactive)
N#Cc1ccccc1NC(=O)/C(=N\NC(=O)c1ccncc1)C(c1cnc2ccc([N+](=O)[O-])cc2n1)[N+](=O)[O-] (stereo not given)	80.2 µM (inactive)
Cc1ccc(C2=C(C#N)C(=O)N3CCN=C3S2)cc1	> 100 µM (inactive)
O=c1c(=O)c2c(Br)sc(Br)c2c1=O	20.3 µM (inactive)

====

- Test system: SNB-19
- PROTOCOL SUMMARY: NCI tumour cell line growth inhibition, 48 h
The source made the active and inactive calls. Cut-off read from the data, not from the text of the source: active = GI50 up to about 1.1 µM and inactive = higher.
Outcome codes: active, inactive

MOLECULE	CATEGORY LABEL
CC(Oc1ccc(OCC2CCCCC2)cc1)C(=O)NCCO (stereo not given)	inactive
NC1=NC(Cn2nc(-c3ccccc3)c3ccccc3c2=O)=NNC(=O)N1	inactive
COc1ccccc1/C=C/c1cnccn1	inactive
Cc1ccc(OP(=O)(Oc2ccc(C)cc2)N2C=Cc3ccccc3C2C#N)cc1 (stereo not given)	inactive
CC(C)(C)c1cc(CCC(=O)Nc2ccc(Cl)cc2)nc(S)n1	inactive
O=[N+]([O-])c1ccc(C2=Nc3ccccc3SC(c3ccccc3)C2)cc1 (stereo not given)	inactive
OC1COC2CC(Nc3ccccn3)OC12 (stereo not given)	inactive
CCN(CC)CCNc1n[n+]([O-])c2ccccc2[n+]1[O-]	inactive
C1CSCCCSCCCSCCCSCCCSC1	inactive
COc1cc2c(cc1O)NC(=S)[C@@H]1CCCN1C2=O	inactive
O=c1c(=O)c2c(Br)sc(Br)c2c1=O	inactive
Cc1c(Cl)cccc1NC(=O)C(=O)C1C(=O)NC(=O)NC1=O	inactive
CCC12CN(C(=O)OC)C3C(Br)C1CCC(=O)C32 (stereo not given)	inactive
COC(=O)c1ccccc1NC(=O)C(=O)NNC(=O)c1ccncc1	inactive
CC(=O)O[C@H]1C[C@@H](OC(C)=O)[C@@](C)(O)[C@@H]2[C@@H](OC(C)=O)[C@@]3(O)[C@H](/C=C(/CO)[C@H]4O[C@H]4[C@@H](OC(C)=O)[C@@]12C)OC(=O)[C@@H]3C	inactive
CC[C@]1(Cc2ccc(OC)c(OC)c2)CN(S(=O)(=O)c2ccc(C)cc2)C[C@@H]1OC(C)=O	inactive
CC1=NN(C(=O)c2ccc(Cl)cc2)C(=O)/C1=C/c1ccc(Cl)cc1	inactive
COC(=O)C1(Cc2ccccc2)Cc2cc3c(cc2C1)CCC3	inactive
C=CCCc1cc(OC)ccc1CN(C)C(C)(C)CO	inactive
CC1(C)[C@@H]2C[C@H]1C(Cc1ccccc1C[C@H]1c3cc(-c4ccccn4)ncc3[C@H]3C[C@@H]1C3(C)C)c1cc(-c3ccccn3)ncc12 (stereo not given in full)	active
NS(=O)(=O)c1ccc(/N=N/c2ccc(O)c(O)c2)cc1	inactive
CC(C)C(Sc1nc(-c2ccccc2)c(-c2ccccc2)[nH]1)C(=O)NN (stereo not given)	inactive
O=C(O)c1cc(O)c2c(c1)Cc1cccc(O)c1C2=O	inactive
CCCN(C(=O)c1ccccc1)C(C#N)c1ccc(C(C#N)N(CCC)C(=O)c2ccccc2)cc1 (stereo not given)	inactive
CC(Cc1ccc(O)c(O)c1)C(C)Cc1ccc(O)c(O)c1 (stereo not given) [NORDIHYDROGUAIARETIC ACID]	inactive
O=[N+]([O-])c1cccc2nc3ccccc3c(NCCCN3CCOCC3)c12	active
Cc1ccc(C2=C(C#N)C(=O)N3CCN=C3S2)cc1	inactive
O=C1C(N2CCOCC2)=C(Cl)C(=O)c2ncccc21	inactive
O=C1C2=C(CCCC2)Nc2cccc3ncn1c23	inactive
CCOC(=O)C(/C(=N/NC(=O)OC)C(=O)Nc1ccc(C(C)=O)cc1)c1cnc2ccccc2n1 (stereo not given)	inactive
Nc1ncc2c(n1)-c1ccccc1OC2N1CCOCC1 (stereo not given)	inactive
O=C1CCN(CCC(F)(F)C(F)(F)C(F)(F)C(F)(F)F)C(=S)N1	inactive
CC(=O)O[C@H]1C(=O)[C@@]2(C)[C@H]([C@H](OC(=O)c3ccccc3)[C@]3(O)C[C@H](OC(=O)[C@H](O)[C@@H](NC(=O)c4ccccc4)c4ccc5ccccc5c4)C(C)=C1C3(C)C)[C@]1(OC(C)=O)CO[C@@H]1C[C@@H]2O	active
Sc1nnc(COc2ccc(Cl)cc2)[nH]1	inactive
Nc1ccc2c(c1)Oc1c(F)c(F)cc3c(=O)c(C(=O)O)cn-2c13	inactive
N#Cc1cccc(N2C(=O)c3c(c(-c4ccccc4)c(-c4ccc(Sc5ccc(-c6c(-c7ccccc7)c7c(c(-c8ccccc8)c6-c6ccccc6)C(=O)N(c6cccc(C#N)c6)C7=O)cc5)cc4)c(-c4ccccc4)c3-c3ccccc3)C2=O)c1	inactive
COC(=O)/C=C(\C)CCC1SC1(C)C (stereo not given)	inactive
Cc1c(Cl)ccc2c1NC(=O)C2(O)C1Cc2ccccc2C1=O (stereo not given)	inactive
COC1CCN(N(C)C)O1 (stereo not given)	inactive
O=S(=O)(O)c1ccc2cccc(/N=N\c3c(O)ccc4ccccc34)c2c1	inactive
